- Tested on: Mus musculus
- Procedure Details: AUC (0 to 7.5 hrs) in Swiss mouse at 100 mg/kg, po
- Format: ADME, organism-based, Plasma
- Set-up: time < 7.5 hr, dose 100 mg/kg, route oral
- Experimental Setup: in vivo
Record form. Attribute: AUC. Fill in for each entry.
The reply should contain only the number, in µM·h.

Form field: reported AUC of CC(=O)N1CCN(C(c2ccc(Cl)cc2)c2cccnc2)CC1.O=C(O)CC(O)(CC(=O)O)C(=O)O (configuration not stated) 9.4

Form field: reported AUC of CS(=O)(=O)N1CCN(C(c2cccnc2)c2ccc(Cl)cc2F)CC1.O=C(O)CC(O)(CC(=O)O)C(=O)O (configuration not stated) 43.7

====

- Procedure Details: Apparent half life in Swiss mouse at 20 to 100 mg/kg, po
- Assay type: ADME, organism-based
- Parameters: dose 20-100 mg/kg, route oral
- Experimental Setup: in vivo, read-out: t1/2(app) (converted)
Measurement Label: half-life (h)
The reply should contain only the number, in h.

Form field: reported half-life of CS(=O)(=O)N1CCN(C(c2cccnc2)c2ccc(Cl)cc2F)CC1.O=C(O)CC(O)(CC(=O)O)C(=O)O (configuration not stated) 2.1

Form field: reported half-life of CC(=O)N1CCN(C(c2ccc(Cl)cc2)c2cccnc2)CC1.O=C(O)CC(O)(CC(=O)O)C(=O)O (configuration not stated) 1.7

====

- Test system: Mus musculus
- Procedure Details: AUC (0 to 7.5 hrs) in Swiss mouse at 50 mg/kg, po
- Assay type: ADME, organism-based, Plasma
- Design: time < 7.5 hr, dose 50 mg/kg, route oral
- Experimental Setup: in vivo
Measurement Label: AUC
Remember to follow the number with its unit.

Form field: reported AUC of CS(=O)(=O)N1CCN(C(c2cccnc2)c2ccc(Cl)cc2F)CC1.O=C(O)CC(O)(CC(=O)O)C(=O)O (configuration not stated) 60.2 µM·h

Form field: reported AUC of CC(=O)N1CCN(C(c2ccc(Cl)cc2)c2cccnc2)CC1.O=C(O)CC(O)(CC(=O)O)C(=O)O (configuration not stated) 6.2 µM·h

====

- Procedure Details: Kinetic solubility of the compound at pH 6.5 phosphate buffer by nephelometric analysis
- Type: physicochemical
- Experimental Setup: read-out: Kinetic_solubility
Quick rule for you: solubility kinetic at 10 µg/mL or higher means Criterion met, lower means Criterion not met.

Is it the case that CC(C)(C)NC(=O)N1CCN(C(c2cncnc2)c2ccc(Cl)cc2F)CC1 (stereo not given) has solubility kinetic reaching or exceeding 10 µg/mL? Criterion met

Is it the case that O=C(C1CCCCC1)N1CCN(C(c2cccnc2)c2ccc(Cl)cc2F)CC1 (stereo not given) has solubility kinetic reaching or exceeding 10 µg/mL? Criterion not met

Is it the case that O=S(=O)(c1ccccc1)N1CCN(C(c2cccnc2)c2ccc(Cl)cc2F)CC1 (stereo not given) has solubility kinetic reaching or exceeding 10 µg/mL? Criterion not met

Is it the case that O=S(=O)(c1ccccc1)N1CCN(C(c2ccc(Cl)cc2)c2cccnc2)CC1 (stereo not given) has solubility kinetic reaching or exceeding 10 µg/mL? Criterion not met

Is it the case that CC(C)(C)C(=O)N1CCN(C(c2cccnc2)c2ccc(C(F)(F)F)cc2F)CC1 (stereo not given) has solubility kinetic reaching or exceeding 10 µg/mL? Criterion met

Is it the case that CC(C)(C)OC(=O)N1CCN(C(c2cccnc2)c2ccc(Cl)cc2F)CC1 (stereo not given) has solubility kinetic reaching or exceeding 10 µg/mL? Criterion not met

Is it the case that Cc1csc(C(=O)N2CCN(C(c3cccnc3)c3ccc(Cl)cc3F)CC2)n1 (stereo not given) has solubility kinetic reaching or exceeding 10 µg/mL? Criterion met

Is it the case that CS(=O)(=O)N1CCN(C(c2cccnc2)c2ccc(Cl)cc2F)CC1 (stereo not given) has solubility kinetic reaching or exceeding 10 µg/mL? Criterion met

Is it the case that CC(C)(C)C(=O)N1CCN(C(c2cncnc2)c2ccc(Cl)cc2F)CC1 (stereo not given) has solubility kinetic reaching or exceeding 10 µg/mL? Criterion met

Is it the case that O=C(Nc1ccc(Cl)cc1)N1CCN(C(c2cncnc2)c2ccc(Cl)cc2F)CC1 (stereo not given) has solubility kinetic reaching or exceeding 10 µg/mL? Criterion not met

Is it the case that CC(C)(C)C(=O)N1CCN(C(c2ccc(C(F)(F)F)cc2)c2cccnc2)CC1 (stereo not given) has solubility kinetic reaching or exceeding 10 µg/mL? Criterion met

Is it the case that CC(C)(C)C(=O)N1CCN(C(c2cccnc2)c2ccc(Cl)cc2F)CC1 (stereo not given) has solubility kinetic reaching or exceeding 10 µg/mL? Criterion met

Is it the case that O=C(C1CC1)N1CCN(C(c2cccnc2)c2ccc(Cl)cc2F)CC1 (stereo not given) has solubility kinetic reaching or exceeding 10 µg/mL? Criterion met

Is it the case that CS(=O)(=O)N1CCN(C(c2ccc(Cl)cc2)c2cccnc2)CC1 (stereo not given) has solubility kinetic reaching or exceeding 10 µg/mL? Criterion met

Is it the case that CC(C)(C)OC(=O)N1CCN(C(c2cncnc2)c2ccc(Cl)cc2F)CC1 (stereo not given) has solubility kinetic reaching or exceeding 10 µg/mL? Criterion met

Is it the case that COc1ccccc1N1CCN(C(c2ccc(C(F)(F)F)cc2)c2cnccn2)CC1 (stereo not given) has solubility kinetic reaching or exceeding 10 µg/mL? Criterion not met

Is it the case that CS(=O)(=O)N1CCN(C(c2cccnc2)c2ccc(C(F)(F)F)cc2F)CC1 (stereo not given) has solubility kinetic reaching or exceeding 10 µg/mL? Criterion met

Is it the case that CS(=O)(=O)N1CCN(C(c2cncnc2)c2ccc(C(F)(F)F)cc2F)CC1 (stereo not given) has solubility kinetic reaching or exceeding 10 µg/mL? Criterion met

Is it the case that CC(C)S(=O)(=O)N1CCN(C(c2ccc(Cl)cc2)c2cccnc2)CC1 (stereo not given) has solubility kinetic reaching or exceeding 10 µg/mL? Criterion met

Is it the case that CC(=O)N1CCN(C(c2ccc(Cl)cc2)c2cccnc2)CC1 (stereo not given) has solubility kinetic reaching or exceeding 10 µg/mL? Criterion met
